study_target: T1, HMGB1 (UniProt P09429 1-215, limits assumed)
T1 construct: also called biotinylated HMGB1
T1 sequence (looked up): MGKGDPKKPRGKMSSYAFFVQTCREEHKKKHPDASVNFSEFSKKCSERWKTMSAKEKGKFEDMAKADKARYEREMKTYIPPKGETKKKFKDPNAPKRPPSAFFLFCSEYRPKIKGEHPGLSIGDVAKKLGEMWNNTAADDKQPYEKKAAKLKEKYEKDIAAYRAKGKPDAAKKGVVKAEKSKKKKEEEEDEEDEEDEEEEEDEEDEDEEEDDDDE
method: Octet BLI
For each record, check the reported koff: if it is below 0.0003 s⁻¹ write yes (1), else write no (0).

binder: P2F3 anti-HMGB1 (designed binder, 14FN3 variant; on phage in phage ELISA, soluble 6xHis-tagged in Octet) NVSPPRRARVTDATETTITIRWGVPHSFQVDAVPANGQTPIQRTIKRGVRSYTITGLQPGTDYKIYLYTLNDNARSSPVVIDAST
assigned_class: yes (1)
--
binder: R2E6 anti-HMGB1 (designed binder, 14FN3 variant; on phage in phage ELISA, soluble 6xHis-tagged in Octet) NVSPPRRARVTDATETTITIRWGVAQSQVARFQVDAVPANGQTPIQRTIKRSVHTYTITGLQPGTDYKIYLYTLNDNARSSPVVIDAST
assigned_class: no (0)
--
binder: R2G2 anti-HMGB1 (designed binder, 14FN3 variant; on phage in phage ELISA, soluble 6xHis-tagged in Octet) NVSPPRRARVTDATETTITISWRAAESAIARFQVDAVPANGQTPIQRTIKRTKHTYTITGLQPGTDYKIYLYTLNDNARSSPVVIDAST
assigned_class: no (0)
--
binder: R2D4 anti-HMGB1 (designed binder, 14FN3 variant; on phage in phage ELISA, soluble 6xHis-tagged in Octet) NVSPPRRARVTDATETTITISWGVAESEVTRFQVDAVPANGQTPIQRTIKRSKHAYTITGLQPGTDYKIYLYTLNDNARSSPVVIDAST
assigned_class: yes (1)
--
binder: R2B5 anti-HMGB1 (designed binder, 14FN3 variant; on phage in phage ELISA, soluble 6xHis-tagged in Octet) NVSPPRRARVTDATETTITIRWTVAESKIARFQVDAVPANGQTPIQRTIKRSKHSYTITGLQPGTDYKIYLYTLNDNARSSPVVIDAST
assigned_class: yes (1)
